# Tested on: NCI-H23 lung
# Test Method Notes: NCI tumour cell line growth inhibition, 48 h; in the data active = GI50 below about 0.43 µM; inactive = the rest
// one of active, inactive, no free text

>>> qualitative_label("Cc1c(N)nc(C2CC(=O)N2CC(N)C(N)=O)nc1C(=O)NC(C(=O)NC(C)C(O)C(C)C(=O)NC(C(=O)NCCc1nc(-c2nc(C(=O)NCCNCC(C)O)cs2)cs1)C(C)O)C(OC1OC(CO)C(O)C(O)C1OC1OC(CO)C(O)C(OC(N)=O)C1O)c1cnc[nH]1 (stereo not drawn)")
"inactive"
>>> qualitative_label("COc1ccc2c3c(c4cc(OC)c(OC)cc4c2c1)C[C@H]1CCCCN1C3")
"active"
>>> qualitative_label("CN(C)C(=O)c1cc2cnc(Nc3ccc(N4CCNCC4)cn3)nc2n1C1CCCC1")
"inactive"
>>> qualitative_label("N#Cc1c(N)nc(N2CCOCC2)c(C#N)c1-c1ccc(Cl)cc1Cl")
"inactive"

Prompt: Please indicate how the test categorized `OCCn1c(-c2ccncc2)c(-c2ccc(F)cc2)c2ncccc21` .
Response: inactive

Prompt: Please indicate how the test categorized `COc1ccc(-c2ccc(/C=N/n3c(COc4ccc(Cl)c(C)c4)nn(CN4CCOCC4)c3=S)o2)c([N+](=O)[O-])c1` .
Response: inactive

Prompt: Please indicate how the test categorized `Brc1ccc2c(c1)-c1ccccc1C1=NCCN12` .
Response: inactive

Prompt: Please indicate how the test categorized `O=C1C(=O)c2c(ccc3ccccc23)-c2ccccc21` .
Response: inactive

---

# Tested on: RXF 393 renal
# Test Method Notes: NCI tumour cell line growth inhibition, 48 h
Measurement Label: TGI

Recorded TGI, per entry:
>>> observed_result("NS(=O)(=O)c1cc2c(cc1Cl)NC(C(=O)NNC(=O)c1ccncc1)=NS2(=O)=O")
"> 100 µM"
>>> observed_result("Cc1cccc(Cc2cnc(NC(=O)CCCOc3ccc(Cl)cc3)s2)c1")
"> 100 µM"
>>> observed_result("CCCCCCCCCCCCCCCC(=O)OCC(COP(=O)(O)OCCNC(=O)CCSSc1ccccn1)OC(=O)CCCCCCCCCCCCCCC (stereo not given)")
"> 100 µM"

# TGI of `Cc1nc(-c2cccnc2)sc1C(=O)/C=C/c1ccc(Cl)cc1Cl` = > 100 µM

# TGI of `CC1=C(C(=O)OC(C)(C)C)C(c2ccc([N+](=O)[O-])cc2)C(C(=O)OC(C)(C)C)=C(C)N1` = 36.2 µM

# TGI of `CCOC(=O)c1ccc(-c2cccs2)[nH]1` = > 100 µM

# TGI of `O=C(Nc1ccccc1)Oc1ccccc1C1CCCCC1` = 21.9 µM

# TGI of `O=C(CCc1ccccc1)NCCc1ccc(O)c(O)c1` = > 100 µM

# TGI of `COc1ccc(/[N+]([O-])=C/c2ccccc2OC(=S)S)cc1` = > 100 µM

# TGI of `O=C1C[C@@]23CCC4(CC2=CCC[C@H]3O1)OCCO4` = > 100 µM

---

# System: NCI/ADR-RES ovarian
# Test Method Notes: NCI tumour cell line growth inhibition, 48 h
Measurement Label: GI50

Recorded GI50, per entry:
>>> observed_result("Brc1ccc2c(c1)-c1ccccc1C1=NCCN12")
"0.897 µM"
>>> observed_result("Cc1cc(N(CCCl)CCCl)ccc1/C=N\\NC(=O)c1cccnc1")
"13.7 µM"
>>> observed_result("c1csc(-c2[nH]nc3c2CCc2ccccc2-3)c1")
"17.7 µM"
>>> observed_result("CS(=O)(=O)Nc1ccc(Nc2c3ccccc3nc3cc(Cl)ccc23)cc1")
"3.93 µM"
>>> observed_result("COc1ccc(S(=O)(=O)NCCCNc2nccc(-c3c(-c4ccc(F)cc4)nc4sccn34)n2)cc1")
"5.23 µM"
>>> observed_result("CCc1c[nH]c2ncnc(N3CC[C@](N)(CNC(=O)c4ccc(F)cc4F)C3)c12")
"> 61.2 µM"

Now let's try a different one.
# GI50 of `CCC(=C(c1ccc(OCCN(CC)CC)cc1)c1ccc(OCCN(CC)CC)cc1)c1ccc(Cl)cc1` = 0.625 µM
